Test System: hNET (Homo sapiens (Human), UniProt P23975)
Sequence (P23975 whole entry): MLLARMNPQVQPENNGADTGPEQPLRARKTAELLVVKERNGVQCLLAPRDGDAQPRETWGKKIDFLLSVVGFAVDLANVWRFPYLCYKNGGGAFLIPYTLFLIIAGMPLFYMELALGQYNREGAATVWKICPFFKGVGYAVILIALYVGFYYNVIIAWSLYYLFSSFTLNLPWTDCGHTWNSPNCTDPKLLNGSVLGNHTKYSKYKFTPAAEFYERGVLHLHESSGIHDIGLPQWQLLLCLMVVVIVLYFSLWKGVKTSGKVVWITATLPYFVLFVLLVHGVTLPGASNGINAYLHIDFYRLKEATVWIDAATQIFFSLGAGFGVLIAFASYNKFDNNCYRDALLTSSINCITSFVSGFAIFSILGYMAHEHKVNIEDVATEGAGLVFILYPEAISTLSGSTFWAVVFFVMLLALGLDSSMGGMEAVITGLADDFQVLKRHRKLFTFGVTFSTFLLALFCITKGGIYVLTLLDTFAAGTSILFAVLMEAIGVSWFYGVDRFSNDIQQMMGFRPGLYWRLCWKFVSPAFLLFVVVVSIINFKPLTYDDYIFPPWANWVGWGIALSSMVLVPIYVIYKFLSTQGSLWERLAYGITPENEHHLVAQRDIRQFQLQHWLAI
Assay Remarks: NET radioligand binding assay ([3H]nisoxetine, HEK-293 membranes)
Stated Conditions: recombinant HEK-293 membranes, [3H]nisoxetine; read-out: Binding Affinity (IC50, nM) NET
Binary label based on IC50 with cut-off 300 nM: below gives yes (1), not below gives no (0).

# Compound, Assigned Class
data = [
    ("O=c1n(-c2ccc3c(c2)CN2CCC3(c3ccc(Cl)cc3)CC2)nc2ccccn12 [Example 23]", "yes (1)"),
    ("FC(F)(F)c1ccc(Oc2ccc3c(c2)CN2CCC3(c3cccc(Cl)c3)CC2)nn1 [Example 49]", "no (0)"),
    ("Nc1cnc(Oc2ccc3c(c2)CN2CCC3(c3ccc(Cl)cc3)CC2)cn1 [Example 34]", "no (0)"),
    ("CCS(=O)(=O)N1CCN(c2ccc3c(c2)CN2CCC3(c3ccc(Cl)cc3)CC2)CC1 [Example 30]", "yes (1)"),
    ("N#Cc1ccc(-c2ccc3c(c2)CN2CCC3(c3ccc(Cl)cc3)C2)cc1 (racemic) [Example 8]", "no (0)"),
    ("Cc1cc2ncnn2cc1-c1ccc2c(c1)CN1CCC2(c2ccc(Cl)c(Cl)c2)CC1 [Example 43]", "no (0)"),
    ("FC(F)(F)c1ccc(-c2ccc3c(c2)CN2CCC3(c3ccc(Cl)cc3)C2)nn1 (racemic) [Example 5]", "yes (1)"),
    ("FC(F)Oc1ccc(-c2ccc3c(c2)CN2CCC3(c3ccc(Cl)c(Cl)c3)CC2)nn1 [Example 39]", "yes (1)"),
]

###

Test system: DAT
Assay Remarks: Ex vivo transporter occupancy assay, DAT ([125I]RTI-55, brain tissue)
Format: in vivo
Stated Conditions: dosed orally, 3 mg/kg, time until sacrifice 3 h
% Occupancy DAT vs 20%: less than gives True; not less than gives False.

# Compound, Assigned Class
measured = [
    ("FC(F)Oc1ccc(-c2ccc3c(c2)CN2CCC3(c3ccc(Cl)cc3)CC2)nn1 [Example 14]", "True"),
    ("Nc1cnc(-c2ccc3c(c2)CN2CCC3(c3ccc(Cl)cc3)CC2)cn1 [Example 18]", "True"),
    ("FC(F)Oc1ccc(-c2ccc3c(c2)CN2CCC3(c3ccc(Cl)cc3)C2)nn1 (single isomer, unassigned) [6(−)]", "True"),
    ("Nc1cnc(-c2ccc3c(c2)CN2CCC3(c3ccc(Cl)c(Cl)c3)CC2)cn1 [Example 42]", "False"),
    ("O=C1NC2C=CC(c3ccc4c(c3)CN3CCC4(c4ccc(Cl)cc4)CC3)=CC2O1 (stereo not drawn) [Example 22]", "True"),
    ("FC(F)(F)c1ccc(Oc2ccc3c(c2)CN2CCC3(c3ccc(Cl)cc3)CC2)nn1 [Example 32]", "False"),
]

###

Entries and their IC50 values follow.
Test System: hNET (Homo sapiens (Human))
Assay Remarks: NET radioligand binding assay ([3H]nisoxetine, HEK-293 membranes)
Stated Conditions: recombinant HEK-293 membranes, [3H]nisoxetine; read-out: Binding Affinity (IC50, nM) NET
Measurement Label: IC50 (nM)

# Compound, Measurement Label, Result Number
measured = [
    ("Clc1ccc(C23CCN(CC2)Cc2cc(-c4cncnc4)ccc23)cc1 [Example 16]", "IC50", 2930),
    ("c1cc(C23CCN(CC2)Cc2cc(N4CCOCC4)ccc23)ccc1N1CCOCC1 [Example 29]", "IC50", 5460),
    ("Nc1cnc(-c2ccc3c(c2)CN2CCC3(c3ccc(Cl)cc3)CC2)cn1 [Example 18]", "IC50", 925),
    ("Clc1ccc(C23CCN(CC2)Cc2cc(Oc4cnccn4)ccc23)cc1Cl [Example 44]", "IC50", 161),
    ("Fc1ccc(C23CCN(CC2)Cc2cc(Oc4ccc(C(F)(F)F)nn4)ccc23)cc1 [Example 52]", "IC50", 206),
]
